# Tested target: Cbl-b (Homo sapiens (Human), UniProt Q13191)
# Sequence (Q13191 36-427): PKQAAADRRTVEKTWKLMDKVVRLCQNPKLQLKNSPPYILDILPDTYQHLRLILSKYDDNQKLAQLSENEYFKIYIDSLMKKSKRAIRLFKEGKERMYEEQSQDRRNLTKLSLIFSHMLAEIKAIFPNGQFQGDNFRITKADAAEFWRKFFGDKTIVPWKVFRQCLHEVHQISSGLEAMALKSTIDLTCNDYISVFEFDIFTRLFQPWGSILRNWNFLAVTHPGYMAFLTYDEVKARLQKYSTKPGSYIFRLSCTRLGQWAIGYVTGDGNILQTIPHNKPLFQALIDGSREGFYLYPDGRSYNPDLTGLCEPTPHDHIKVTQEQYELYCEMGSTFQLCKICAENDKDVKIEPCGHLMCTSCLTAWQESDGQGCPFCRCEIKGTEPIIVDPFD
# Experimental details: Cbl-b displacement assay (Cbl-b inhibition assay), Biological Example 1
# Format: binding
# Assay setup: 0.125 nM Cbl-b final concentration (Low); read-out: Cbl-b activity IC50 (Low)
pIC50: −log10 of the molar value.
Listing: pIC50 of selected compounds

- Structure as smiles: "C[C@@H]1CN(Cc2cc3c(c(C(F)(F)F)c2)CN(c2cccc(C4(c5nncn5C)CC(F)(F)C4)c2)C3=O)CCO1"
  Observable: "pIC50"
  Measured result: "> 8.30"
- Structure as smiles: "C[C@H]1CCCN(Cc2cc3c(c(C(F)(F)F)c2)CN(c2cccc([C@]4(c5nncn5C)C[C@H](C#N)C4)c2)C3=O)C1"
  Observable: "pIC50"
  Measured result: "> 8.30"
- Structure as smiles: "Cc1cc(C(=O)Nc2cccc([C@]3(c4nncn4C)C[C@H](C)C3)c2)nc(C2CC2)n1"
  Observable: "pIC50"
  Measured result: "7.00 to 7.70"
- Structure as smiles: "Cn1cnnc1C1(c2cccc(N3Cc4c(cc(CN5CCC[C@H](C(F)(F)F)C5)cc4C(F)(F)F)C3=O)c2)CC2(CC2)C1"
  Observable: "pIC50"
  Measured result: "> 8.30"

Query :: Could you please provide reported pIC50 for C[C@H]1CCCN(Cc2cc3c(c(C(F)(F)F)c2)CN(c2cccc(C4(c5nncn5C)COC4)c2)C3=O)C1 ? Thanks!
Result :: > 8.30

Query :: Could you please provide reported pIC50 for CC[C@@H]1CN(Cc2cc3c(c(C(F)(F)F)c2)CN(c2cccc([C@]4(c5nncn5C)C[C@@H](C)C4)c2)C3=O)CCO1 ? Thanks!
Result :: 7.70 to 8.30

Query :: Could you please provide reported pIC50 for C[C@@H]1CN(Cc2cc3c(c(C4CC4)n2)CN(c2cccc([C@]4(c5nncn5C)C[C@@H](C)C4)c2)C3=O)CCO1 ? Thanks!
Result :: 7.70 to 8.30

---

# Tested target: UniProt Q13191
# Experimental details: Cbl-b displacement assay (Cbl-b inhibition assay), Biological Example 1
# Type: binding
# Assay setup: read-out: IC50 values in the Cbl-b inhibition assay of Biological Example 1
Observable: IC50

// solved cases for IC50 follow
- Compound: "CC(c1cc2c(c(C(F)(F)F)c1)CN(c1cccc([C@@H](c3nncn3C)C3CCC3)c1)C2=O)N1CCC[C@H](C)C1 (stereo partly drawn)"
  IC50: "20 to 100 nM"
- Compound: "CC(c1cc2c(c(C(F)(F)F)c1)CN(c1cccc([C@@H](c3nncn3C)C3CCC3)c1)C2=O)N1CCC(F)(F)[C@H](C)C1 (stereo partly drawn)"
  IC50: "20 to 100 nM"
- Compound: "C[C@H]1CCCN(Cc2cc3c(c(C(F)(F)F)c2)CN(c2cccc([C@H](c4nncn4C)C4CCC4)c2)C3=O)C1"
  IC50: "≤ 5 nM"

Query :: Could you please provide reported IC50 for C[C@@H]1CN(Cc2cc3c(c(C4CC4)n2)CN(c2cccc([C@@H](c4nncn4C)C4CCC4)c2)C3=O)CCC1(F)F ? Thanks!
Result :: 20 to 100 nM

Query :: Could you please provide reported IC50 for C[C@H]1CCCN(Cc2cc3c(c(C4CC4)n2)CN(c2cccc([C@@H](c4nncn4C)C4CCC4)c2)C3=O)C1 ? Thanks!
Result :: 20 to 100 nM

Query :: Could you please provide reported IC50 for C[C@@H]1CN(Cc2cc3c(c(C(F)(F)F)c2)CN(c2cccc([C@H](c4nncn4C)C4CCC4)c2)C3=O)CCC1(F)F ? Thanks!
Result :: ≤ 5 nM

Query :: Could you please provide reported IC50 for Cn1cnnc1[C@@H](c1cccc(N2Cc3c(cccc3C(F)(F)F)C2=O)c1)C1CCC1 ? Thanks!
Result :: 5 to 20 nM

Query :: Could you please provide reported IC50 for C[C@@H]1CN(Cc2cc3c(c(C(F)(F)F)c2)CN(c2cccc([C@@H](c4nncn4C)C4CCC4)c2)C3=O)CCC1(F)F ? Thanks!
Result :: > 100 nM

Query :: Could you please provide reported IC50 for C[C@@H]1CN(Cc2cc3c(c(C(F)(F)F)c2)CN(c2cccc([C@@H](c4nncn4C)C4CCC4)c2)C3=O)CCO1 ? Thanks!
Result :: 5 to 20 nM

---

# Tested target: Cbl-b (Homo sapiens (Human), UniProt Q13191)
# Experimental details: Cbl-b displacement assay (Cbl-b inhibition assay), Biological Example 1
# Assay type: binding
# Assay setup: 0.125 nM Cbl-b final concentration (Low); read-out: Cbl-b activity IC50 (Low)
pIC50: −log10 of the molar value.
Listing: pIC50 of selected compounds

// solved cases for pIC50 follow
- Compound: "C[C@H]1CCCN(Cc2cc3c(c(C(F)(F)F)c2)CN(c2cccc([C@]4(c5nncn5C)C[C@@H](C#N)C4)c2)C3=O)C1"
  Tested target: "Cbl-b (Homo sapiens (Human), UniProt Q13191)"
  Observable: "pIC50"
  Measured result: "> 8.30"
- Compound: "Cn1cnnc1C(c1cccc(N2Cc3c(cccc3C(F)(F)F)C2=O)c1)C1COC1 (stereo not shown)"
  Tested target: "Cbl-b (Homo sapiens (Human), UniProt Q13191)"
  Observable: "pIC50"
  Measured result: "< 7.00"
- Compound: "Cn1cnnc1[C@]1(c2cccc(N3Cc4c(cc(CN5CCO[C@H](CC#N)C5)cc4C(F)(F)F)C3=O)c2)C[C@H](C)C1"
  Tested target: "Cbl-b (Homo sapiens (Human), UniProt Q13191)"
  Observable: "pIC50"
  Measured result: "7.70 to 8.30"

Shift focus to the following entry.
Query :: Could you please provide reported pIC50 for C[C@@H]1CN(Cc2cc3c(c(C(F)(F)F)c2)CN(c2cccc([C@@H](c4nncn4C)C4CCC4)c2)C3=O)CCC1(F)F ? Thanks!
Result :: < 7.00

---

Listing: pIC50 of selected molecules
# Tested target: Cbl-b (Homo sapiens (Human))
# Experimental details: Cbl-b displacement assay (Cbl-b inhibition assay), Biological Example 1
# Assay type: binding
# Assay setup: 0.125 nM Cbl-b final concentration (Low); read-out: Cbl-b activity IC50 (Low)
pIC50: −log10 of the molar value.

// solved cases for pIC50 follow
- Molecule: "C[C@@H]1CN(Cc2cc3c(c(C(F)(F)F)c2)CN(c2cccc(C4(c5nncn5C)CC5(CC5)C4)c2)C3=O)CCO1"
  Measured result: "> 8.30"
- Molecule: "Cc1cc(C(=O)Nc2cccc([C@]3(c4nncn4C)C[C@@H](C)C3)c2)nc(C2CC2)n1"
  Measured result: "7.00 to 7.70"
- Molecule: "C[C@@H]1CN(Cc2cc3c(c(C(F)(F)F)c2)CN(c2cccc([C@]4(c5nncn5C)C[C@H](O)C4)c2)C3=O)CCC1(F)F"
  Measured result: "7.70 to 8.30"
- Molecule: "Cn1cnnc1C(C)(c1cccc(N2Cc3c(cccc3C(F)(F)F)C2=O)c1)C1CCC1 (stereo not drawn)"
  Measured result: "< 7.00"
- Molecule: "C[C@H]1CCCN(Cc2cc3c(c(C(F)(F)F)c2)CN(c2cccc([C@]4(c5nncn5C)C[C@@H](O)C4)c2)C3=O)C1"
  Measured result: "7.70 to 8.30"

Query :: Write pIC50 of C[C@H]1CCCN(Cc2cc3c(c(C(F)(F)F)c2)CN(c2cccc([C@H](c4nncn4C)C4CCC4)c2)C3=O)C1 ; system used: Cbl-b (Homo sapiens (Human))
Result :: > 8.30

Query :: Write pIC50 of C[C@@H]1CN(Cc2cc3c(c(C(F)(F)F)c2)CN(c2cccc([C@]4(c5nncn5C)C[C@H](C#N)C4)c2)C3=O)CCC1(F)F ; system used: Cbl-b (Homo sapiens (Human))
Result :: > 8.30

Query :: Write pIC50 of C[C@@H]1CN(Cc2cc3c(c(C(F)(F)F)c2)CN(c2cccc([C@]4(c5nncn5C)C[C@@H](C)C4)c2)C3=O)CCO1 ; system used: Cbl-b (Homo sapiens (Human))
Result :: 7.00 to 7.70

Query :: Write pIC50 of C[C@@H]1CN(Cc2cc3c(c(C(F)(F)F)c2)CN(c2cccc([C@]4(c5nncn5C)C[C@H](CC#N)C4)c2)C3=O)CCC1(F)F ; system used: Cbl-b (Homo sapiens (Human))
Result :: > 8.30

Query :: Write pIC50 of Cn1cnnc1C1(c2cccc(N3Cc4c(cccc4C(F)(F)F)C3=O)c2)CCOC1 (stereo not drawn) ; system used: Cbl-b (Homo sapiens (Human))
Result :: < 7.00

---

Listing: pIC50 of selected molecules
# Tested target: Cbl-b (Homo sapiens (Human), UniProt Q13191)
# Experimental details: Cbl-b displacement assay (Cbl-b inhibition assay), Biological Example 1
# Assay type: binding
# Assay setup: read-out: IC50 values in the Cbl-b inhibition assay of Biological Example 1
pIC50: −log10 of the molar value.

Query :: Could you please provide reported pIC50 for Cn1cnnc1C(C)(c1cccc(N2Cc3c(cccc3C(F)(F)F)C2=O)c1)C1CCC1 (stereo not drawn) [Compound 18] ? Thanks!
Result :: < 7.00

Query :: Could you please provide reported pIC50 for C[C@H]1CCCN(Cc2cc3c(c(C(F)(F)F)c2)CN(c2cccc([C@@H](c4nncn4C)C4CCC4)c2)C3=O)C1 [Compound 4] ? Thanks!
Result :: ≥ 8.30

Query :: Could you please provide reported pIC50 for Cn1cnnc1C(c1cccc(N2Cc3c(cccc3C(F)(F)F)C2=O)c1)C1COC1 (stereo not drawn) [Compound 7] ? Thanks!
Result :: < 7.00
